Class fulfilled: glass transition temperature at least 70 °C. Class not fulfilled: glass transition temperature below 70 °C.

INSERT INTO assay_data (molecule, label) VALUES
  ('*O[Si](*)(CC)CC (repeat unit)', 'not fulfilled'),
  ('*Oc1ccc(Oc2ccc(C(=O)c3ccc(*)cc3)cc2)cc1S(=O)(=O)O (repeat unit)', 'fulfilled'),
  ('*CC(C)(CC)C(=O)O* (repeat unit)', 'not fulfilled'),
  ('*Oc1ccc(C2(c3ccc(Oc4ccc(C(=O)c5c(C(=O)c6ccc(*)cc6)c(-c6ccc(F)cc6)c(-c6ccc(F)cc6)c(-c6ccc(F)cc6)c5-c5ccc(F)cc5)cc4)cc3)c3ccccc3-c3ccccc32)cc1 (repeat unit)', 'fulfilled'),
  ('*Oc1cc(C(C)(C)C)c(Oc2ccc(C(=O)c3ccc(*)cc3)cc2)cc1C(C)(C)C (repeat unit)', 'fulfilled');

Continue with the molecule presented below.
QUERY: Does *Oc1ccc(NC(=O)CCCCCCCCC(=O)Nc2ccc(*)cc2)cc1 (repeat unit) have a reported glass transition temperature of at least 70 °C?
RESULT: fulfilled
